- Tested on: NCI-H23 lung
- assay_protocol: NCI-60 one-dose screen, 48 h (100 = growth as untreated, 0 = no growth, -100 = all killed)
- condition_label: 10 µM
- Description: Growth inhibition of the NCI-H23 human Non-Small Cell Lung tumor cell line is measured as a screen for anti-cancer activity. Cells are grown in 96 well plates and exposed to the test compound for 48 hours. Compounds are tested at a single concentration, which is 10^-5 M for most compounds. The reported endpoint is percent growth (GI% or GIPRCNT), where numbers from 0 - 100% represent growth inhibition, and numbers from -100% - 0 represent cell death. […]
About 83,000 compounds went through this panel and 20% of them were active in at least one assay; those are over-represented in the sample as a whole.
assay_metric: growth (%)

| compound | assay_metric | test_result |
| --- | --- | --- |
| COc1cc(-c2nc(-c3nnc(-c4ccccc4Cl)o3)c3ccccn23)cc(OC)c1OC | growth | 91.1 |
| COC(=O)[C@@H]1[C@H](O)[C@H](C)[C@H](O)[C@@](C)(O)/C=C\C=C(C)C(=O)Nc2c(C)c(OC(C)=O)c3c(c2O)C(=O)C(C)=C2OCOC(=C23)C(C)=C[C@@](C)(O)[C@H](O)[C@@H](C)[C@H]1OC(C)=O | growth | 101 |
| O=C(CCCCC[P+](c1ccccc1)(c1ccccc1)c1ccccc1)NC(COC(=O)C(Cl)Cl)(COC(=O)C(Cl)Cl)COC(=O)C(Cl)Cl | growth | 108 |
| Cc1nc2oc3ccccc3c(=O)c2cc1C(=O)NCc1ccccc1 | growth | 85.9 |
| COc1ccc(-c2nn(-c3cccc(NC(=O)Nc4cccc(C(F)(F)F)c4)c3)cc2-c2ccncc2)cc1Cl | growth | 5.45 |
| O=C1NC(=O)N(Cc2ccccc2)CC1Br (centres undefined) | growth | 52.6 |
| OCC1OC(n2cnc3c(N/N=C\c4ccccn4)ncnc32)C(O)C1O (centres undefined) | growth | 27.1 |
| C[N+](C)(C)c1ncnc2nc[nH]c12 | growth | 93.8 |
| O=C(c1ccc(Cl)cc1Cl)N1CCOCC1 | growth | 97.3 |
